From: the supplement of paper PMC10567573

// reported protein stability index per item
test: protein stability index of a GFP-peptide fusion (GPS, HEK-293T) (PSI 1-6); higher = more stable; settings: treatment: MLN4924 1 uM, 8 h; c terminus: a fixed tail appended;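 note: 24-mer peptide tiles fused after GFP, lentivirally expressed, FACS-sorted into six equal bins by GFP/DsRed ratio, decoded by Illumina sequencing, PSI is the read-weighted mean bin number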

Incoming: Using the record for NPEEDEDQRNPAKESLETPSNGRI [SOAT1] , report its protein stability index.
Outgoing: 5.62

Incoming: So what does the record say about protein stability index for EMEEGVKESLCAKEEKCQGKGDDS [KCNA4] ?
Outgoing: 5.57

Incoming: Query (sequence): RDPAAGAAPFRFVARPVRFPREHQ [ZNF511] ; field requested: protein stability index
Outgoing: 3.23

====

assay: protein stability index of a GFP-peptide fusion (GPS, HEK-293T) (PSI 1-6); higher = more stable; details: treatment: DMSO; c terminus: a fixed tail appended
Rule: protein stability index under 3 gives -1, otherwise 1.

Example entries begin here.
[
  {
    "Sequence text": "KDGMAFQEALDPGPFDQGSPFAQE [ELF3]",
    "Qualitative label": 1
  },
  {
    "Sequence text": "KTSELLVRKWRVKSALGAMGQWQL [DPCD]",
    "Qualitative label": -1
  },
  {
    "Sequence text": "SWEEGMKVFEELLLDADWSINAGS [CRY1]",
    "Qualitative label": -1
  }
]

Incoming: State whether the measured protein stability index reaches 3, counting equality as reaching it, for RHSYQVYRQPIPVQELVLEDLQDG [NET1]
Outgoing: 1

Incoming: Does the sequence DRADYYLEEFKENAYKDLAWKHGN [PCMTD2] have recorded protein stability index that is 3 or more?
Outgoing: 1

Incoming: Quick check: does TIDAVPNAIPGRTDIELEIYGMEG [ZNF207] have protein stability index greater than or equal to 3?
Outgoing: 1

Incoming: Check if protein stability index >= 3 (inclusive). Item: MAAPPKAPIRVRNLTIRAGALTGK [DMRTC1]
Outgoing: 1

Incoming: Is protein stability index for QAQGARAGGSARRPDTGDDAAGHG [GMCL1] at or above 3?
Outgoing: 1

Incoming: Hi, just wondering whether NMCGYHSQDRYEFSSHITRGEHRF [IKZF1] shows protein stability index of 3 or higher.
Outgoing: -1

Incoming: For this sequence, is measured protein stability index 3 or higher? PGPGSGPGSGPGHGSGSHPGPASG [SPAG8]
Outgoing: 1

Incoming: Form field: protein stability index at least 3? Entry: EELVARSETHAAGHSQEKTHSREK [CHGB]
Outgoing: 1

Incoming: Given LYRNGKDQDGDQAPEYRGRTELLK [MOG] , state whether its protein stability index is at least 3.
Outgoing: 1

Incoming: Quick check: does QEELPALLKALVSELSEHLRDPLT [FCHSD1] have protein stability index greater than or equal to 3?
Outgoing: -1

Incoming: Can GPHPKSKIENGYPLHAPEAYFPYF [CDC14A] be said to have protein stability index at or above 3?
Outgoing: -1

Incoming: Confirm if protein stability index reported for the sequence AVFMWPGKDSRWLPSLVLARLVFV [SLC29A1] is 3 or above.
Outgoing: 1
